# Test system: Streptococcus pneumoniae
# Assay Method Text: Antibacterial activity against Streptococcus pneumoniae DSM20566 assessed as inhibition of bacterial growth incubated for 24 hrs by broth microdilution assay
# Format: functional
Assay Metric: MIC (µM)
Numbers only, in µM.

Example entries and their recorded answers appear below.
{"Molecule": "CC(C)=CC[C@]12Oc3cc(O)c([C@H]4C=C(C)C[C@H](c5ccc(O)cc5O)[C@H]4C(=O)c4ccc(O)cc4O)c(O)c3C(=O)[C@@]1(O)Oc1cc(O)ccc12", "MIC [µM]": 2.08}
{"Molecule": "CO[C@H]1/C=C/O[C@@]2(C)Oc3c(C)c(O)c4c(O)c(c(/C=N/N5CCN(C)CC5)c(O)c4c3C2=O)NC(=O)/C(C)=C\\C=C\\[C@H](C)[C@H](O)[C@@H](C)[C@@H](O)[C@@H](C)[C@H](OC(C)=O)[C@@H]1C", "MIC [µM]": 0.02}

Each molecule below has a recorded value; state its MIC.
1. CC(C)=CCCC1=C[C@H](c2c(O)cc3c(c2O)C(=O)C[C@@H](c2ccc(O)cc2O)O3)[C@@H](C(=O)c2ccc(O)cc2O)[C@H](c2ccc(O)cc2O)C1
2. CC(C)=CCC12Oc3cc(O)c(C4C=C(C)CC(c5ccc(O)cc5O)C4C(=O)c4ccc(O)cc4O)c(O)c3C(=O)C1(O)Oc1cc(O)ccc12 (centres undefined)

Outgoing:
[3.16, 3.16]
